# Tested target: GAL4 DBD-CfEcR(DEF)/VP16AD-MmRXRE (Choristoneura fumiferana)
# Protocol description: 13B3 Assay (CHO stable cell line, luciferase reporter)
# Particulars: read-out: 13B3 EC50; CHO 13B3 stable cell line, luciferase reporter, 48 h; average of two wells
Reported property: pEC50
Note on pEC50: it is the negative log10 of concentration, concentration in mol/L.

CCc1c(OC)cccc1C(=O)NN(C(=O)c1cc(F)cc(C(F)(F)F)c1)C(C)(C)C [RG-115088]
5.74
COc1cccc(C(=O)N(NC(=O)c2ccc3c(c2C)OCCO3)C(C)(C)C)c1 [RG-100360]
6.23
Cc1c(C(=O)NN(C(=O)c2cc(F)c(Cl)cc2Cl)C(C)(C)C)ccc2c1CCCO2 [RG-115539]
5.30

Query block: Param readout = pEC50; param system = GAL4 DBD-CfEcR(DEF)/VP16AD-MmRXRE (Choristoneura fumiferana); param query = Cc1c(C(=O)NN(C(=O)c2cc(F)cc(C(F)(F)F)c2)C(C)(C)C)ccc2c1OCCO2 [RG-115169] ; response: value
Result block: 6.30

Query block: How about this molecule: Cc1c(C(=O)NN(C(=O)c2cc(F)c(F)c(F)c2F)C(C)(C)C)ccc2c1CCCO2 [RG-115518]
Result block: 5.90

Query block: How about this molecule: Cc1ccc(F)c(C(=O)N(NC(=O)c2ccc3c(c2C)CCCO3)C(C)(C)C)c1 [RG-115499]
Result block: 6.48

Query block: How about this molecule: CCc1c(C(=O)NN(C(=O)c2cc(OC)c(C)c(OC)c2)C(C)(C)C)ccc2c1OCCO2 [RG-115130]
Result block: 6.29

Query block: How about this molecule: CCc1ccc(C(=O)NN(C(=O)c2cc(C)c(C)c(Cl)c2)C(C)(C)C)cc1 [RG-101863]
Result block: 6.14

Query block: How about this molecule: CCc1c(OC)cccc1C(=O)NN(C(=O)c1cc(C)cc(C=NO)c1)C(C)(C)C [RG-115625]
Result block: 4.60

Query block: How about this molecule: COc1cc(C)cc(C(=O)N(NC(=O)c2cccc(OC)c2C)C(C)(C)C)c1 [RG-100767]
Result block: 5.98

Query block: How about this molecule: CCc1c(OC)cccc1C(=O)NN(C(=O)c1c(F)cccc1F)C(C)(C)C [RG-115033]
Result block: 6.00

Query block: How about this molecule: CCc1c(OC)cccc1C(=O)NN(C(=O)c1cc(Cl)ccc1[N+](=O)[O-])C(C)(C)C [RG-115257]
Result block: 6.05
